Quick reference for Kd among some compounds
target: extracytoplasmic domain of M. tuberculosis PknB (ED-PknB, PASTA domains) (Mycobacterium tuberculosis, UniProt P9WI81); construct: GST (N, cleaved yes); made in house; host or cells: Escherichia coli BL21 (DE3); assay: Surface plasmon resonance (Biacore) binding of synthetic muropeptides to immobilized ED-PknB; conditions: Table S1; SPR, ED-PknB on CM-5 chip (5,000 RU), two-state binding model
Sequence (P9WI81 354-626): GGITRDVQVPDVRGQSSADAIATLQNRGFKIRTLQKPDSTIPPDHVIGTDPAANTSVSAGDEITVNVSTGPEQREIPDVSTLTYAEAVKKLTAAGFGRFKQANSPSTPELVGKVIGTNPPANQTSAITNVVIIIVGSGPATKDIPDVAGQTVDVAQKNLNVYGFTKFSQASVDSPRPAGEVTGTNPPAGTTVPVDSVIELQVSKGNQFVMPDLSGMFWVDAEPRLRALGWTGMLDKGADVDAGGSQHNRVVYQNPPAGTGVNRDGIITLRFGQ
*1 amine or outer side, *2 acyl side, *3 side chain or, on linkers, in order; H or OH if unused. Where a SMILES comes first, the peptide text is derived from it. [ ]: non-standard residue; d: D form. Mur = C[C@@H](O[C@H]1[C@H](O)[C@@H](CO)OC(O)[C@@H]1N[*:1])C(=O)[*:2]; d(isoGln) = NC(=O)[C@@H](CCC(=O)[*:2])N[*:1]

Worked examples, 2 compounds total:
* CC(=O)N[C@H]1C(O)O[C@H](CO)[C@@H](O)[C@@H]1O[C@H](C)C(=O)N[C@@H](C)C(=O)N[C@H](CCC(=O)N[C@@H](CCC[C@@H](N)C(N)=O)C(=O)N[C@H](C)C(N)=O)C(N)=O (stereo partly shown) [MTrP-DAP (amide/amide) 6c] | 14.9 µM
* CC(=O)N[C@H]1C(O)O[C@H](CO)[C@@H](O)[C@@H]1O[C@H](C)C(=O)N[C@@H](C)C(=O)N[C@H](CCC(=O)N[C@@H](CCCC(N)C(N)=O)C(=O)N[C@H](C)C(N)=O)C(=O)O (stereo partly shown) [MTrP-DAP (acid/amide) 6b] | > 100 µM

Form: compound = CC(=O)NCCCC[C@H](NC(=O)CC[C@@H](NC(=O)[C@H](C)NC(=O)[C@@H](C)O[C@H]1[C@H](O)[C@@H](CO)OC(O)[C@@H]1NC(C)=O)C(N)=O)C(=O)N[C@H](C)C(N)=O (stereo partly shown) [MTrP-Lys (amide) NHAc 2b] ; Kd = > 500 µM

Form: compound = CC(=O)N[C@H]1C(O)O[C@H](CO)[C@@H](O)[C@@H]1O[C@H](C)C(=O)N[C@@H](C)C(=O)N[C@H](CCC(=O)N[C@@H](CCCCN)C(=O)N[C@H](C)C(=O)NCC(N)=O)C(N)=O (stereo partly shown) [MPP-Lys (Gly) 3b] (Ac-[Mur]A[d(isoGln)]K[dA]G-NH2) ; Kd = > 500 µM

Form: compound = CC(=O)N[C@H]1C(O)O[C@H](CO)[C@@H](O)[C@@H]1O[C@H](C)C(=O)N[C@@H](C)C(=O)N[C@H](CCC(=O)N[C@@H](CCCCN)C(N)=O)C(N)=O (stereo partly shown) [MTP-Lys (amide) 1] ; Kd = > 500 µM

Form: compound = CC(=O)N[C@H]1C(O)O[C@H](CO)[C@@H](O)[C@@H]1O[C@H](C)C(=O)N[C@@H](C)C(=O)N[C@H](CCC(=O)N[C@@H](CCCCN)C(=O)N[C@H](C)C(=O)N[C@H](C)C(N)=O)C(N)=O (stereo partly drawn) [MPP-Lys (D-Ala) 3a] (Ac-[Mur]A[d(isoGln)]K[dA][dA]-NH2) ; Kd = > 500 µM

Form: compound = CC(=O)N[C@@H](C)C(=O)N[C@H](CCC(=O)N[C@@H](CCCC(N)C(=O)O)C(=O)N[C@H](C)C(=O)N[C@H](C)C(N)=O)C(N)=O (stereo partly shown) [Peptide 8 (amide/amide)] ; Kd = > 500 µM
